Molecular target: UniProt:P0AE70
Sequence (P0AE70 whole entry): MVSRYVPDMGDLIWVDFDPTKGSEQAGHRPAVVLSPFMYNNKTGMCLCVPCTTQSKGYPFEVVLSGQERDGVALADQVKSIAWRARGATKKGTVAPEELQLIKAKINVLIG
Assay: MazF toxin RNase activators, dose response, biochemical, fluorescence, single-stranded RNA substrate, uHTS hits (AID 588481)
Format: functional
Activity calls are given as the source filed them. Rule as the data show it: active = EC50 of 20 µM or less and inactive = more.
MEASUREMENT_LABEL: EC50

Answer with the recorded EC50 for the compound listed here: O=c1oc2ccccc2cc1-c1nc(-c2cccs2)cs1
> 99 µM (inactive)

Provide measured EC50 value, entry: C#CCN1C(=O)S/C(=C\c2ccc(N3CCOCC3)cc2C)C1=O
> 99 µM (inactive)

Entry Cc1cc2nc3c(O)nc(S)nc3nc2cc1NC(=O)C(F)(F)F needs its EC50 filled in; supply it.
> 99 µM (inactive)
